Assay: SK-BR-3 cell growth inhibitors, pilot screen, 24 h, human (AID 572);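 note: compound exposure lasted between 18 and 24 h rather than exactly 24 h; 100% = carrier-treated control wells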
Conditions: SK-BR-3 viability, CellTiter-Glo luminescence, at 10 µM, hits give low values
MEASUREMENT_LABEL: viability (%)
One number for each entry, in %.

> print(dat)
                                   compound  recorded.result
1  O=C(NCC1COc2ccccc2O1)c1ccccc1 (stereo not drawn)               79
2  Cc1ccc(-c2nnn(CC(=O)NC3CC4CCC3C4)n2)cc1 (stereo not drawn)              109
3        Clc1cc2c(c(Cn3cnc4ccccc43)c1)OCOC2              109
4                CCCOc1ccc(OCCSc2ncccn2)cc1               97
5             COc1ccccc1OC(=O)c1ccc2nsnc2c1              110

Please give viability for each item listed below.
1. CCOC(=O)N1CCC(NC(=O)CSCc2nc(-c3cccc(OC)c3)oc2C)CC1
2. CCC(=O)NC1(C(F)(F)F)C(=O)NC(C)=C1C#N (stereo not drawn)
3. Cc1cc(C(=O)COC(=O)C2COc3ccccc3O2)c(C)n1CC1CCCO1 (stereo not drawn)
4. Cc1ccc(S(=O)(=O)N2C(=O)CCC2C(=O)Nc2ccc3c(c2)OCCO3)cc1 (stereo not drawn)
5. CC1(CC(=O)O)C(=O)N=C2C=CC=CN21 (stereo not drawn)
6. Cc1noc(C)c1CSc1nnc2n(-c3ccccc3)c(=O)c3ccccc3n12
7. COc1ccc(-n2c(SCCC(=O)O)nnc2-c2ccncc2)cc1

[94.5, 102, 82, 109, 93, 72.5, 96]

Numbers sourced from PubChem BioAssay.
